Reference for the values: patent US20040048834A1

test system: OSA-FH; test: Cytotoxicity MTS, solid tumors, Osteosarcoma OSA-FH; assay type: cell-based; details: 4-Parameter Curve Fit, NA = not active
readout_kind: pIC50
The scale used: pIC50 is minus the common logarithm of the concentration in molar units.

{"compound": "CCCCCCCCCCCCCCCCC(=O)[C@H](C)N [drawing 119]", "pIC50": 4.83}
{"compound": "CCCCCCCCCCCCCCCC[C@@H](O)[C@H](C)N [drawing 113]", "pIC50": 6.74}
{"compound": "CCCCCCCCCCCCCCCCC[C@@H](O)[C@H](C)N [drawing 114]", "pIC50": 5.07}

Let us move to another entry and its pIC50.
**Query** Provide value of pIC50 for this record tested with OSA-FH: CCCCCCCCCCCCCCC[C@@H](O)[C@@H](N)CC [drawing 116]
**Result** 5.07

====

Measured pIC50 values are reported for all entries that follow.
tested on: HT29; experiment: Cytotoxicity of spisulosine analogs, HT29 (after Berjeron et al); format: cell-based; settings: HT29; methodology after Berjeron et al; NA=not active; hydrochloride; read-out: Cytotoxicity IC50 HT29
Where a name gives a salt, the structure may show the parent alone.
The scale used: pIC50 is minus the common logarithm of the concentration in molar units.

Worked set:
{"compound": "CCCCCCCCCCCCCC[C@@H](O)[C@H](C)N [drawing 45, hydrochloride]", "pIC50": 7.49}
{"compound": "CCCCCCCCCCCCCCCCC[C@@H](O)[C@H](C)N [drawing 51, hydrochloride]", "pIC50": 7.84}

**Query** // returns reported pIC50 for input CCCCCCCCCCCCCCC[C@@H](O)[C@@H](N)Cc1ccc(O)cc1 [drawing 70, hydrochloride]
**Result** 6.62

**Query** Same question for CCCCCCCCCCCCCCCC[C@@H](O)[C@@H](N)CC [drawing 61, hydrochloride] please.
**Result** 7.54

**Query** Same question for CCCCCCCCCCCCCCC[C@@H](O)[C@@H](N)CC [drawing 59, hydrochloride] please.
**Result** 8.53

**Query** Same question for CCCCCCCCCCCCC[C@@H](O)[C@H](C)N [drawing 42, hydrochloride] please.
**Result** 8.47

====

test system: P3HR1; assay: Cytotoxicity MTS, leukemias/lymphomas, P3HR1; format: cell-based; details: 4-Parameter Curve Fit, NA = not active, read-out: Cytotoxicity IC50 Lymphoma (Burkitts ascites) P3HR1
readout_kind: IC50 (µM)
Give the quantity in µM, number only.

**Query** // returns reported IC50 for input CCCCCCCCCCCCCCCC(O)C(C)N (stereo not shown)
**Result** 3.37

====

Measured IC50 values are reported for all entries that follow.
system: A549; experiment: Cytotoxicity of spisulosine analogs, A549 (after Berjeron et al); assay type: cell-based; details: A549; methodology after Berjeron et al; NA=not active; read-out: Cytotoxicity IC50 A549
Give the quantity in nM, number only.

{"compound": "CCCCCCCCCCCCCCC[C@@H](O)[C@@H](N)Cc1ccc(O)cc1 [drawing 69]", "IC50 [nM]": 1320}
{"compound": "CCCCCCCCCCCCCCCCCC[C@@H](O)[C@H](C)N [drawing 52, (2S,3R)-2-Amino-3-heneicosanol]", "IC50 [nM]": 305}
{"compound": "CCCCCCCCCCCCCCCC(O)C(N)CC (stereo not drawn) [drawing 79]", "IC50 [nM]": 334}
{"compound": "CCCCCCCCCCCCCC[C@@H](O)[C@@H](N)CC [drawing 56, (3S,4R)-3-Amino-4-octadecanol]", "IC50 [nM]": 3.5}
{"compound": "CCCCCCCCCCCCCCC[C@@H](N)[C@H](C)N", "IC50 [nM]": 1400}

**Query** // returns reported IC50 for input CCCCCCCCCCCCCCC[C@@H](O)[C@@H](N)CCC [drawing 64, (4S,5R)-4-Amino-5-eicosanol]
**Result** 159

**Query** Same question for CCCCCCCCCCCCCCC[C@@H](O)[C@H](C)N [drawing 36, spisulosine-285, reference compound] please.
**Result** 35

**Query** Same question for CCCCCCCCCCCCCCC[C@@H](O)[C@@H](N)CF [drawing 111] please.
**Result** 32.9

**Query** Same question for CCCCCCCCCCCCCCCC(=O)[C@@H](C)N please.
**Result** 156
